B1: TPR t1 (parent)
chain: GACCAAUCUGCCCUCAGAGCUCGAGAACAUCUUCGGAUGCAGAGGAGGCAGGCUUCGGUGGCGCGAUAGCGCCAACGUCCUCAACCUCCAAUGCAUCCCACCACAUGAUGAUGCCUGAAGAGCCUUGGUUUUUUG

Variants of: B1
experimentNotes: polymerase ribozyme fitness, log enrichment relative to wild type (log ratio); higher = more active; in vitro selection for triplet polymerase activity
// class 0 strictly below -3 in polymerase ribozyme fitness (log ratio); class 1 otherwise

Exercise: Exam item: decide whether the reported polymerase ribozyme fitness (log ratio) for A27U U30A G61U C72U A84C C98G A111U is at least -3.
Key: class 0

Exercise: Exam item: decide whether the reported polymerase ribozyme fitness (log ratio) for U87G U129C is at least -3.
Key: class 1

Exercise: Exam item: decide whether the reported polymerase ribozyme fitness (log ratio) for A37G C53A C56A A90U A91C G113C is at least -3.
Key: class 1

Exercise: Exam item: decide whether the reported polymerase ribozyme fitness (log ratio) for G52A G60U is at least -3.
Key: class 1

Exercise: Exam item: decide whether the reported polymerase ribozyme fitness (log ratio) for C13U U129A is at least -3.
Key: class 1

Exercise: Exam item: decide whether the reported polymerase ribozyme fitness (log ratio) for G60A G63A C114U is at least -3.
Key: class 0

Exercise: Exam item: decide whether the reported polymerase ribozyme fitness (log ratio) for G47U G58U C88U is at least -3.
Key: class 1

Exercise: Exam item: decide whether the reported polymerase ribozyme fitness (log ratio) for A66C A90G C114G is at least -3.
Key: class 0

Exercise: Exam item: decide whether the reported polymerase ribozyme fitness (log ratio) for A5U A6G G69U C86A C102A is at least -3.
Key: class 1

Exercise: Exam item: decide whether the reported polymerase ribozyme fitness (log ratio) for U9A C11A G42U G61U is at least -3.
Key: class 1

Exercise: Exam item: decide whether the reported polymerase ribozyme fitness (log ratio) for G47C C115A is at least -3.
Key: class 1

Exercise: Exam item: decide whether the reported polymerase ribozyme fitness (log ratio) for G44U G71A U130G is at least -3.
Key: class 0

Exercise: Exam item: decide whether the reported polymerase ribozyme fitness (log ratio) for G19C U55A C64U A66U C104U is at least -3.
Key: class 0

Exercise: Exam item: decide whether the reported polymerase ribozyme fitness (log ratio) for C56U A100C is at least -3.
Key: class 1

Exercise: Exam item: decide whether the reported polymerase ribozyme fitness (log ratio) for C56U G117U is at least -3.
Key: class 1

Exercise: Exam item: decide whether the reported polymerase ribozyme fitness (log ratio) for A90U G117C is at least -3.
Key: class 1

Exercise: Exam item: decide whether the reported polymerase ribozyme fitness (log ratio) for G60U U126C is at least -3.
Key: class 1
